- Measured on: 78 targets (CEREP) other than the 5-HT6 receptor
- Measurement notes: Selectivity panel, 78 targets (CEREP)
- Experimental conditions: all but the 5-HT2B and 5-HT2A receptors, read-out: Ki at ancillary targets
pKi: −log10 of the molar value.
Readout: pKi

- COc1ccc(S(=O)(=O)c2cccc(OC(F)F)c2)cc1N1CCN(C)CC1 [Example 1]: < 6.00

Data credit: patent US20140120036A1
